Assign composite z-score to each entry below.
subject-of-test: Dihydroorotate dehydrogenase (quinone), mitochondrial (Plasmodium falciparum (isolate 3D7)) (UniProt Q08210)
Sequence (Q08210 whole entry, looked up): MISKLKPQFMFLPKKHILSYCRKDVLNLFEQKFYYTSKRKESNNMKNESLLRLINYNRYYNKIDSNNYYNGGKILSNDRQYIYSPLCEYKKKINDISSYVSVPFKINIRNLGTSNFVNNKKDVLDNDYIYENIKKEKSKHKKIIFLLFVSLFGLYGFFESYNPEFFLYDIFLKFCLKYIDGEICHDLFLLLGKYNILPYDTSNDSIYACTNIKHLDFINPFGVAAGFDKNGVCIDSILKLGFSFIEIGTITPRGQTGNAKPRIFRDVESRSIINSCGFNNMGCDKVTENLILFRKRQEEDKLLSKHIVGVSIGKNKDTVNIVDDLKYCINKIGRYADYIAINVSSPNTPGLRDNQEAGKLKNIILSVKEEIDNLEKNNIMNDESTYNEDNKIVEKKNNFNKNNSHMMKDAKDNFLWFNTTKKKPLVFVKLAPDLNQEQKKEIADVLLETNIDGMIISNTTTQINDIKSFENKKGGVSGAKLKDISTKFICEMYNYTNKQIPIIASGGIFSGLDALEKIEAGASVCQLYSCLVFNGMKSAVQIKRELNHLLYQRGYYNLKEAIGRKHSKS
assay-details: PfDHODH enzyme inhibitors, primary screen, biochemical, C-terminal His tag, absorbance 600 nm (AID 1175);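 note: recombinant parasite enzyme with a five histidine tag at its C terminus; test concentration not given here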
condition-parameters: DCIP absorbance 600 nm, higher = more signal, called active from +8 up or from −8 down
Give bare numbers.

Below, 5 compounds whose answers are already recorded.
CC(=O)NCCCC[C@@H]1NC(=O)[C@@H]2C[C@H](C(=O)NCCCCCCN)[C@H](c3cccc(OCCO)c3)N2C1=O | 0.23
CN(C)CCCNC(=O)[C@@H]1c2ccccc2C(=O)N(C2CCCCC2)[C@H]1c1ccc(CO)cc1 | -0.151
O=C1C[C@@](C(=O)NCc2ccccc2)(c2ccc([N+](=O)[O-])cc2)[C@@H](c2ccc(CO)cc2I)N1CC12CC3CC(CC(C3)C1)C2 | -0.0036
C=CCN1C(=O)[C@]2(O[C@H](CCO)[C@@H]([Si](C)(C)c3ccc(OC)cc3)[C@@H]2C)c2cc(NC(=O)c3ccc(OC)cc3)ccc21 | -0.224
CC=CC(O)C1C=CC2C(=O)NC(=O)C2N1Nc1ccccn1 (configuration not stated) | 0.434

# per-item lookup of composite z-score; items listed below
1. COc1cc(NN2C(C(O)c3ccc(I)cc3)C=CC3C(=O)N(c4ccccc4)C(=O)C32)cc(OC)c1OC (configuration not stated)
2. O=C1O[C@H](c2ccccc2)[C@H](c2ccccc2)N2[C@H]1[C@@H](C(=O)Nc1nc3ccccc3s1)[C@]1(C(=O)Nc3ccc(C#CC4=CCCCC4)cc31)[C@H]2c1ccc(O)cc1

[-0.755, 0.667]

---

assay-details: small-molecule microarray binders of probe aNog, primary screen, biochemical, biotinylated probe, 635/667 nm fluorescence (AID 1115);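 note: probe is biotinylated aNog protein used at 0.15 µg/mL for 1 h at 4 C; z-score combines 667 nm fluorescence of each spot with its signal to noise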
condition-parameters: higher = more signal
Entry flag: 1 (yes) if composite z-score reaches 0.4; 0 (no) if it does not.

Below, 5 compounds whose answers are already recorded.
C=C(COC)/C(=C/C[C@@H](OC(C)=O)c1ccc(CO)o1)c1cc(C(=O)OC)ccc1OC | 0 (no)
O=C1C2C=CC(C(O)c3ccco3)N(Nc3ccccc3)C2C(=O)N1c1ccccc1 (stereo not given) | 0 (no)
COCCOC(=O)N1C(=O)[C@@]2(c3cc(C#Cc4ccc(OC)cc4)ccc31)[C@H](C(=O)NC[C@H](O)c1ccccc1)[C@H]1C(=O)O[C@H](c3ccccc3)[C@H](c3ccccc3)N1[C@@H]2c1ccc(OCCO)cc1 | 0 (no)
C=C(C)C1CCC(C(O)C2C=CC3C(=O)N(C)C(=O)C3N2Nc2cc(OC)c(OC)c(OC)c2)CC1 (stereo not given) | 1 (yes)
CCCCNC(=O)c1ccc(C#C[Si](C(C)C)(C(C)C)C(C)C)c(OC(C)=O)c1 | 0 (no)

Does the reported composite z-score for CCc1cccc(NC(=O)O[C@H]2[C@H](OC(=O)Nc3ccccc3)[C@H](OC(=O)Nc3ccccc3)[C@@H](OC)O[C@@H]2CO)c1 fall at or above the 0.4 mark? 1 (yes)

Repeat with Cc1ccc(C(C)CC(O)C2C=CC3C(=O)N(c4ccccc4)C(=O)C3N2Nc2ccc(C#N)cc2)o1 (stereo not given) 1 (yes)

Try C=CCC(OC(C)=O)[C@@H]1[C@@H](N(Cc2ccc(-c3cccc(C(F)(F)F)c3)o2)C(=O)Cc2ccc(OC)cc2)c2cc(OCCCO)ccc2N1C(=O)Cc1ccc2ccccc2c1 (stereo not given in full) next. 0 (no)

Request: O=C1O[C@H](c2ccccc2)[C@H](c2ccccc2)N2[C@H]1[C@@H](C(=O)O)[C@]1(C(=O)Nc3ccc(C#CC4(O)CCCCCC4)cc31)[C@H]2c1ccc(O)cc1 0 (no)

One more compound: C=CC[C@H](OC(=O)Nc1ccc(SC)cc1)c1ccc(OCCO)cc1 1 (yes)

Subsequent entry: O=C1C2C=CC(C(O)c3cc(C(F)(F)F)cc(C(F)(F)F)c3)N(Nc3ccccc3F)C2C(=O)N1c1ccccc1 (stereo not given) 1 (yes)

Another compound to check: C=C(COC)C(=O)CC[C@H](OC(=O)c1cccnc1)c1ccc(CO)o1 0 (no)

Similarly, C=C(/C(=C/C[C@H](OC(=O)c1ccncc1)c1cccc(OCCO)c1)c1cnc2ccccc2c1)C(C)C ? 0 (no)

Again, but for COc1cc(NN2C(C(O)c3ccccc3)C=CC3C(=O)N(C)C(=O)C32)cc(OC)c1OC (stereo not given) 1 (yes)

And then C=CCC(OC(C)=O)[C@@H]1[C@@H](N(Cc2ccc(-c3ccccc3)cc2)C(=O)Cc2ccc(F)cc2)c2cc(OCCCO)ccc2N1C(=O)Cc1ccc2ccccc2c1 (stereo not given in full) , what is it? 0 (no)
